List of pIC50 tested on JMJD2C (Homo sapiens (Human)).
Sequence (Q9H3R0 2-372): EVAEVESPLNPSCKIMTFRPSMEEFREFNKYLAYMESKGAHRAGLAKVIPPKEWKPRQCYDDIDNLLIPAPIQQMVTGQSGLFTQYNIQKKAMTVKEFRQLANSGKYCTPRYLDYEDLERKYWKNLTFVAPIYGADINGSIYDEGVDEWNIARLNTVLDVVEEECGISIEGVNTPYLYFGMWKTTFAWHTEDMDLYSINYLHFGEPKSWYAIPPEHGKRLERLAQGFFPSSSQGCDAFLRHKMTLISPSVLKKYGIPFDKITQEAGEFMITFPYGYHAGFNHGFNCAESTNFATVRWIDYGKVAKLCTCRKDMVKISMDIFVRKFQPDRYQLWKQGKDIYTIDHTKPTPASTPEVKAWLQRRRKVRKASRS
pIC50: −log10 of the molar value.

Given the compound CN(CC1CC1)c1ccc2c(c1)CCC[C@H]2CNc1cnccc1C(=O)O [Example 120] , what is its reported pIC50?
6.00 to 7.00

Would you mind telling me what pIC50 value was observed for Cc1ccc(N(C)c2ccc3c(c2)OCC[C@H]3CNc2cnccc2C(=O)O)cc1F [Example 151] ?
6.00 to 7.00

What does the data say about its pIC50? Entry: COc1ccc2c(c1C)CCC[C@H]2CNc1cnccc1C(=O)O [Example 99]
6.00 to 7.00

If you can, please state the reported pIC50 value of CN(c1ccccc1)c1ccc2c(c1)CCC[C@@H]2CNc1cnccc1C(=O)O [Example 1] .
5.00 to 6.00

Data request, read-out pIC50, for O=C(O)c1ccncc1NC[C@@H]1CCCc2cc(Sc3ccccc3F)ccc21 [Example 73]
6.00 to 7.00

Fill blank: measured pIC50 of the compound Cc1ccc(S(=O)(=O)c2ccc3c(c2)CCC[C@H]3CNc2cnccc2C(=O)O)cc1 [Example 84] is ____.
6.00 to 7.00

// pIC50 lookup, key: CN(c1ccc2c(c1)CCC[C@H]2CNc1cnccc1C(=O)O)c1ccccc1F [Example 6]
6.00 to 7.00

Data request, read-out pIC50, for Cc1cccc(N(C)c2ccc3c(c2)CCC[C@H]3CNc2cnccc2C(=O)O)n1 [Example 123]
6.00 to 7.00

# get_value(readout='pIC50', item= CN(c1ccc2c(c1)CCC[C@H]2CNc1cnccc1C(=O)O)c1ccc2occc2c1 [Example 137] )
5.00 to 6.00

* * *

System: KYSE-150 esophageal carcinoma cell line
Test: In vitro cell-based assay: cellular proliferation via BrdU incorporation (ELISA)
Set-up: species or system human
Settings: Homo sapiens, KYSE-150, 168 hours compound incubation
quantity_name: IC50

What reported IC50 corresponds to CN(C)c1ccc(N(C)c2ccc3c(c2)CCC[C@H]3CNc2cnccc2C(=O)O)cc1 [Example 160] on KYSE-150 esophageal carcinoma cell line?
≤ 100 nM

Record CN(c1ccc(CO)cc1)c1ccc2c(c1)CCC[C@H]2CNc1cnccc1C(=O)O [Example 158] : what is its IC50 with KYSE-150 esophageal carcinoma cell line?
100 to 1000 nM

Query for KYSE-150 esophageal carcinoma cell line: what IC50 does the record show for O=C(O)c1ccncc1NC[C@@H]1CCOc2cc(-c3cccc(F)c3Cl)ccc21 [Example 44] ?
100 to 1000 nM

Item O=C(O)c1ccncc1NCC1CCOc2cc(-c3ccoc3)ccc21 (stereo not drawn) [Example 28] with KYSE-150 esophageal carcinoma cell line - IC50?
1000 to 10000 nM

Provide value of IC50 for this record tested with KYSE-150 esophageal carcinoma cell line: CN(c1cccc(C#N)c1)c1ccc2c(c1)CCC[C@H]2CNc1cnccc1C(=O)O [Example 115]
100 to 1000 nM

Form field - read-out: IC50; system: KYSE-150 esophageal carcinoma cell line; submitted item: O=C(O)c1ccncc1NC[C@@H]1CCCc2cc(Oc3ccc(F)cc3F)ccc21 [Example 65]
100 to 1000 nM

* * *

Answer each item with its documented IC50.
Tested on: KYSE-150 esophageal carcinoma cell line
Experiment: In vitro cell-based assay: cellular proliferation via BrdU incorporation (ELISA)
Design: species or system human
Conditions: Homo sapiens, KYSE-150, 168 hours compound incubation

Return IC50 measured with KYSE-150 esophageal carcinoma cell line given this compound: "CN(c1ccc2c(c1)OCC[C@H]2CNc1cnccc1C(=O)O)c1ccc2occc2c1"
≤ 100 nM

Record "CN(c1ccc2c(c1)CCC[C@H]2CNc1cnccc1C(=O)O)c1ccccc1F" : what is its IC50 with KYSE-150 esophageal carcinoma cell line?
≤ 100 nM

Recorded IC50 for "CN(c1ccc(C#N)cc1)c1ccc2c(c1)CCC[C@H]2CNc1cnccc1C(=O)O" with KYSE-150 esophageal carcinoma cell line, please?
100 to 1000 nM

Checklist item: IC50 tested on KYSE-150 esophageal carcinoma cell line, entry "O=C(O)c1ccncc1NC[C@@H]1CCOc2cc(Sc3ccc(F)cc3)ccc21" , value?
100 to 1000 nM

// lookup IC50 | system=KYSE-150 esophageal carcinoma cell line | key= "Cc1ccc(N(C)c2ccc3c(c2)OCC[C@H]3CNc2cnccc2C(=O)O)cc1"
≤ 100 nM

* * *

Give measured pIC50 for each item. Keep answers brief.
System: KYSE-150 esophageal carcinoma cell line
Assay: In vitro cell-based assay: cellular proliferation via BrdU incorporation (ELISA)
Set-up: species or system human
Settings: Homo sapiens, KYSE-150, 168 hours compound incubation
pIC50: −log10 of the molar value.

Checklist item: pIC50 tested on KYSE-150 esophageal carcinoma cell line, entry CN(c1ccc2c(c1)CCC[C@H]2CNc1cnccc1C(=O)O)c1ccn(C)n1 [Example 125] , value?
6.00 to 7.00

Recall the recorded pIC50 for C#Cc1ccc(N(C)c2ccc3c(c2)OCC[C@H]3CNc2cnccc2C(=O)O)cc1 [Example 126] with KYSE-150 esophageal carcinoma cell line and state it.
6.00 to 7.00

Recall the recorded pIC50 for O=C(O)c1ccncc1NCC1CCCc2cc(N3CCc4ccccc43)ccc21 (centres unmarked) [Example 5] with KYSE-150 esophageal carcinoma cell line and state it.
6.00 to 7.00

# get_value(readout= pIC50, system= KYSE-150 esophageal carcinoma cell line) for CCCc1ccc(N(C)c2ccc3c(c2)OCC[C@H]3CNc2cnccc2C(=O)O)cc1 [Example 208]
≥ 7.00

Param readout = pIC50; param system = KYSE-150 esophageal carcinoma cell line; param query = COc1ccc(N(C)c2ccc3c(c2)OCC[C@H]3CNc2cnccc2C(=O)O)cc1 [Example 178] ; response: value
≥ 7.00
